%Inh by entry:
System: CHEK1;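 further: KINOMEscan kinase panel screen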
Conditions: concentration: 1 μM,replicates: in singlicate; n = 1
The answer should read as a number with its unit following.

%Inh measured on COc1cccc(C2=C(Nc3cccc(Cl)c3)C(=O)NC2=O)c1 = 14%

%Inh measured on Cc1ccc(Nc2ccnc(Nc3ccc4c(c3)CS(=O)(=O)C4)n2)cc1O.Cl = 0%

%Inh measured on COc1cc(Nc2nccc(N3CCC(NC(=O)c4cccc(C#N)c4)C3)n2)cc(OC)c1OC (centres unmarked) = 0%

%Inh measured on O=C(NCC1CC1)c1ccc(-c2cc(C(=O)NC3CC3)ccc2F)cc1 = 0%

%Inh measured on Cl.Cl.NC[C@H](CC1CCCCC1)NC(=O)c1ccc(-c2ccnc3[nH]ccc23)s1 = 96.8%

meta.source: paper PMC5540273
